Tested on: HSJD-DIPG-007 cells (H3F3A K27M, ACVR1 R206H)
procedure_text: Compound efficacy assay, CellTiter-Glo cell viability, HSJD-DIPG-007
Format: cell-based, human
condition_description: HSJD-DIPG-007, H3F3A K27M, 8 days, mean ± SEM, n>=3
Assign GI50 to each entry below.

Q: Answer with reported GI50 of CC(C)Oc1ccc(-c2cnc3c(-c4ccnc5ccccc45)cnn3c2)cc1 [DMH1]
Result: > 20 µM

Q: Answer with reported GI50 of c1cc(-c2cnn3cc(-c4ccc(N5CCNCC5)cc4)cnc23)c2cccnc2c1 [LDN-212854]
Result: 1.25 µM

Q: Answer with reported GI50 of COc1cc(-c2cc(-c3cccc(O)c3)cnc2N)cc(OC)c1OC [K02288]
Result: 9.1 µM

Q: Answer with reported GI50 of COc1cc(-c2cc(-c3ccc(N4CCNCC4)cc3)cnc2C)cc(OC)c1OC [LDN-214117]
Result: 1.57 µM

Q: Answer with reported GI50 of c1ccc2c(-c3cnn4cc(-c5ccc(N6CCNCC6)cc5)cnc34)ccnc2c1 [LDN-193189]
Result: 0.7 µM
